Would you mind telling me the reported selectivity ratio of each entry?
- experiment-summary: Selectivity index, ratio of IC50 for human L02 cells to IC50 for human HCT-116 cells
- Type: toxicity
- test-conditions: L02 cells versus HCT-116 cells, read-out: Ratio IC50
Response field accepts a number only; no unit should be typed.

Look at this compound and give its reported selectivity ratio. C[C@H]1[C@@H](O)O[C@@H]2O[C@@]3(C)CC[C@H]4[C@H](C)CC[C@@H]1[C@@]24OO3
1.65

Look at this compound and give its reported selectivity ratio. C[C@@H]1CC[C@H]2[C@@H](C)C(OC(=O)Nc3ccc(Cl)cc3)O[C@@H]3O[C@@]4(C)CC[C@H]1[C@]32OO4 (some centres not stated)
54.1

Look at this compound and give its reported selectivity ratio. CCCNC(=O)OC1O[C@@H]2O[C@@]3(C)CC[C@@H]4[C@H](C)CC[C@@H]([C@H]1C)[C@@]24OO3 (some centres not stated)
25.8

Look at this compound and give its reported selectivity ratio. Cc1ccc(NC(=O)OC2O[C@@H]3O[C@@]4(C)CC[C@@H]5[C@H](C)CC[C@@H]([C@H]2C)[C@@]35OO4)cc1 (some centres not stated)
26.5

Look at this compound and give its reported selectivity ratio. COc1ccc(NC(=O)OC2O[C@@H]3O[C@@]4(C)CC[C@@H]5[C@H](C)CC[C@@H]([C@H]2C)[C@@]35OO4)cc1 (some centres not stated)
40.2

Look at this compound and give its reported selectivity ratio. C[C@@H]1CC[C@H]2[C@@H](C)C(OC(=O)Nc3ccc(F)cc3)O[C@@H]3O[C@@]4(C)CC[C@H]1[C@]32OO4 (some centres not stated)
17.9

Look at this compound and give its reported selectivity ratio. C[C@@H]1CC[C@H]2[C@@H](C)C(OC(=O)Nc3ccccc3)O[C@@H]3O[C@@]4(C)CC[C@H]1[C@]32OO4 (some centres not stated)
18.6

###

- Test system: A549
- experiment-summary: Anti-proliferative activity against human A549 cells incubated for 72 hrs by MTT assay
- Assay type: functional, cell-based
- test-conditions: A549, 72 h
Would you mind telling me the reported IC50 of each entry?

Look at this molecule and give its reported IC50. COc1ccc(-n2cc(C(=O)OC3O[C@@H]4O[C@@]5(C)CC[C@@H]6[C@H](C)CC[C@@H]([C@H]3C)[C@@]46OO5)nn2)cc1OC (stereo partly drawn)
> 10 µM

Look at this molecule and give its reported IC50. C[C@@H]1CC[C@H]2[C@@H](C)C(OC(=O)CCC(=O)NCCc3c[nH]c4ccc(Cl)cc34)O[C@@H]3O[C@@]4(C)CC[C@H]1[C@]32OO4 (stereo partly drawn)
7.25 µM

Look at this molecule and give its reported IC50. C[C@@H]1CC[C@H]2[C@@H](C)C(OC(=O)CCC(=O)OCc3cn(-c4ccc(Cl)cc4)nn3)O[C@@H]3O[C@@]4(C)CC[C@H]1[C@]32OO4 (stereo partly drawn)
> 10 µM

###

- experiment-summary: Selectivity index, ratio of IC50 for human L02 cells to IC50 for human A549 cells
- Assay type: toxicity
- test-conditions: L02 cells versus A549 cells, read-out: Ratio IC50
Would you mind telling me the reported selectivity ratio of each entry?
Response field accepts a number only; no unit should be typed.

Look at this compound and give its reported selectivity ratio. C[C@H]1[C@@H](O)O[C@@H]2O[C@@]3(C)CC[C@H]4[C@H](C)CC[C@@H]1[C@@]24OO3
0.43

Look at this compound and give its reported selectivity ratio. Cc1ccc(NC(=O)OC2O[C@@H]3O[C@@]4(C)CC[C@@H]5[C@H](C)CC[C@@H]([C@H]2C)[C@@]35OO4)cc1 (stereo partly drawn)
7.82

Look at this compound and give its reported selectivity ratio. C[C@@H]1CC[C@H]2[C@@H](C)C(OC(=O)Nc3ccc(Cl)cc3)O[C@@H]3O[C@@]4(C)CC[C@H]1[C@]32OO4 (stereo partly drawn)
16.8

###

- System: A549
- experiment-summary: Anti-proliferative activity against human A549 cells incubated for 72 hrs by MTT assay
- Type: functional, cell-based
- test-conditions: A549, 72 h
Would you mind telling me the reported pIC50 of each entry?
Reminder that pIC50 is minus the log10 of a molar concentration.

Look at this compound and give its reported pIC50. C[C@@H]1CC[C@H]2[C@@H](C)C(OC(=O)CCc3nc(-c4ccc(F)cc4)no3)O[C@@H]3O[C@@]4(C)CC[C@H]1[C@]32OO4 (some centres not stated)
5.18

Look at this compound and give its reported pIC50. C[C@@H]1CC[C@H]2[C@@H](C)C(OC(=O)CCC(=O)OCc3cn(-c4ccc(F)cc4)nn3)O[C@@H]3O[C@@]4(C)CC[C@H]1[C@]32OO4 (some centres not stated)
5.20

Look at this compound and give its reported pIC50. C[C@@H]1CC[C@H]2[C@@H](C)C(OC(=O)c3ccc(Cn4cccn4)cc3)O[C@@H]3O[C@@]4(C)CC[C@H]1[C@]32OO4 (some centres not stated)
5.15

Look at this compound and give its reported pIC50. C[C@@H]1CC[C@H]2[C@@H](C)C(OC(=O)c3ccc(Cn4ccc5ccc(F)cc54)cc3)O[C@@H]3O[C@@]4(C)CC[C@H]1[C@]32OO4 (some centres not stated)
6.05

Look at this compound and give its reported pIC50. CCCCCCCNC(=O)OC1O[C@@H]2O[C@@]3(C)CC[C@@H]4[C@H](C)CC[C@@H]([C@H]1C)[C@@]24OO3 (some centres not stated)
5.10

###

Would you mind telling me the reported pIC50 of each entry?
- Test system: A549
- experiment-summary: Anti-proliferative activity against human A549 cells incubated for 72 hrs by MTT assay
- Format: functional, cell-based
- test-conditions: A549, 72 h
pIC50: −log10 of the molar value.

Look at this molecule and give its reported pIC50. C[C@@H]1CC[C@H]2[C@@H](C)C(OC(=O)NC(=O)c3ccccc3)O[C@@H]3O[C@@]4(C)CC[C@H]1[C@]32OO4 (stereo not given in full)
< 5.00

Look at this molecule and give its reported pIC50. C[C@@H]1CC[C@H]2[C@@H](C)C(OC(=O)c3ccc4ncccc4c3)O[C@@H]3O[C@@]4(C)CC[C@H]1[C@]32OO4 (stereo not given in full)
< 5.00

Look at this molecule and give its reported pIC50. C[C@@H]1CC[C@H]2[C@@H](C)C(OC(=O)c3cn(-c4ccc(Br)cc4)nn3)O[C@@H]3O[C@@]4(C)CC[C@H]1[C@]32OO4 (stereo not given in full)
< 5.00

Look at this molecule and give its reported pIC50. COc1ccc(-n2cc(C(=O)OC3O[C@@H]4O[C@@]5(C)CC[C@@H]6[C@H](C)CC[C@@H]([C@H]3C)[C@@]46OO5)nn2)cc1 (stereo not given in full)
< 5.00

Look at this molecule and give its reported pIC50. C[C@@H]1CC[C@H]2[C@@H](C)C(OC(=O)c3cn(-c4ccc(Cl)cc4)nn3)O[C@@H]3O[C@@]4(C)CC[C@H]1[C@]32OO4 (stereo not given in full)
< 5.00
